Entries and their inhibition at 10 µM values follow.
- SYSTEM TESTED: BTK (Homo sapiens)
- Sequence (Q06187 402-655 limits assumed): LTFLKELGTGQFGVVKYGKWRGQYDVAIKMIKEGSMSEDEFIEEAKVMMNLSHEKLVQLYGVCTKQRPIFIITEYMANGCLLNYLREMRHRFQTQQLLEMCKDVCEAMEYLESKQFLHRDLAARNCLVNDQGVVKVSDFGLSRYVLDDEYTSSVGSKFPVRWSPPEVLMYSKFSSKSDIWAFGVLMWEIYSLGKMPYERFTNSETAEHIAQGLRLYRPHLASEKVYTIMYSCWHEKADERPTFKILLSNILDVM
- TEST NAME: biochemical
- APPLIED CONDITIONS: read-out: BTK inhibition (%), 0.75 uM BTK, […] probe 3l, 15 min preincubation
Kindly report the value followed by its unit.

>>> df
                                   compound  data_value
0  CC(C)(CNC(=O)c1cccc(-c2noc(C(F)(F)F)n2)c1)c1coc(-c2ccccc2)n1 [PCM-0215836]      -30.9%
1  Cc1cc(C)nc(SCC(=O)Nc2ncc(Cc3cccc4ccccc34)s2)n1 [PCM-0215537]        2.3%
2  N#CCNC(=O)c1ccc(-c2ccnc(Nc3ccc(N4CCOCC4)cc3)n2)cc1 [PCM-0095254]       16.6%

inhibition at 10 µM lookup needed for CN1[C@@H]2CCC[C@H]1CC(NC(=O)c1nn(C)c3ccccc13)C2 (stereo partly shown) [PCM-0064932] , thanks.
10.2%
